Test Details: HCT116 colon cancer cell growth inhibition, primary screen, CellTiter-Glo luminescence, NPC library (AID 1117342)
Measurement Conditions: at 20 µM (top of the series)
Activity calls are given as the source filed them.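 The calls were made as follows: active = compounds that lower survival of HCT116 colon cancer cells in the luminescence readout, no numeric limit stated; inactive = the rest.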
Form entry, call: pick from active, inactive

## Input What outcome does the record of this test show for COc1ccc2nc(S(=O)Cc3ncc(C)c(OC)c3C)[nH]c2c1 (stereo not given) ?
## Output inactive

## Input Try this molecule next: `CC1(C)S[C@@H]2[C@H](N=CN3CCCCCC3)C(=O)N2[C@H]1C(=O)O`
## Output inactive

## Input Try this molecule next: `O=C1c2cccc3c2[C@H](CCC3)CN1[C@@H]1CN2CCC1CC2`
## Output inactive

## Input Try this molecule next: `O=C(O)/C=C/c1ccc(Cn2ccnc2)cc1`
## Output inactive

## Input Try this molecule next: `O=C1Nc2ccc(Cl)cc2[C@@](C#CC2CC2)(C(F)(F)F)O1`
## Output active

## Input Try this molecule next: `COc1ccc2cc3[n+](cc2c1OC)CCc1cc2c(cc1-3)OCO2`
## Output active

## Input Try this molecule next: `Cc1cn([C@H]2C=C[C@@H](CO)O2)c(=O)[nH]c1=O`
## Output inactive

## Input Try this molecule next: `COc1ccc2cc1Oc1ccc(cc1)C[C@H]1c3c(cc4c(c3Oc3cc5c(cc3OC)CCN(C)[C@@H]5C2)OCO4)CCN1C`
## Output active

## Input Try this molecule next: `CC1(C)O[C@@H]2C[C@H]3[C@@H]4C[C@H](F)C5=CC(=O)CC[C@]5(C)[C@H]4[C@@H](O)C[C@]3(C)[C@]2(C(=O)CO)O1`
## Output inactive

## Input Try this molecule next: `CC(C)(C#N)c1cc(Cn2cncn2)cc(C(C)(C)C#N)c1`
## Output inactive

----------
Test Details: viability loss with induced miR-34 in A549 – imaging, A549 dox-inducible miR-34, nuclei and caspase counts, primary screen (AID 1347080)
Measurement Conditions: A549 miR-34 inducible, Hoechst nuclei count, 48 h; measured here: total cells without miR-34 induction
Class membership depends on cell count alone; the intervals are LOW: < 9000; MEDIUM: ≥ 9000 and < 10000; HIGH: ≥ 10000

## Input Lab log: `Nc1ccc(C(=O)O)cc1` — assign cell count category
## Output HIGH

## Input Try this molecule next: `O=c1cc[nH]c(=S)[nH]1`
## Output LOW

## Input Try this molecule next: `Cc1c(C(N)=O)cc([N+](=O)[O-])cc1[N+](=O)[O-]`
## Output LOW

## Input Try this molecule next: `Cc1c(NC(=O)c2cccnc2)c(=O)n(-c2ccccc2)n1C`
## Output MEDIUM

## Input Try this molecule next: CC(Cc1cccc(C(F)(F)F)c1)NCCOC(=O)c1ccccc1 (configuration not stated)
## Output HIGH

## Input Try this molecule next: `C[C@@H]1CN(c2c(F)c(N)c3c(=O)c(C(=O)O)cn(C4CC4)c3c2F)C[C@H](C)N1`
## Output HIGH

## Input Try this molecule next: `Nc1ccc(C(=O)Oc2ccccc2)c(O)c1`
## Output HIGH

## Input Try this molecule next: `O=C(O)CCCC[C@@H]1SC[C@@H]2NC(=O)N[C@@H]21`
## Output HIGH

## Input Try this molecule next: `O=c1oc2cc(O)ccc2s1`
## Output MEDIUM
